Test: Drug level in malaria patient whole blood on day 14
Type: ADME, tissue-based
Conditions: human, read-out: Drug uptake

- compound: "CCN(CC)CCCC(C)Nc1ccnc2cc(Cl)ccc12 (stereo unspecified)"
  concentration [nM]: 204

###

Experiment: Drug level in malaria patient whole blood on day 4
Assay type: ADME, tissue-based
Details: human, read-out: Drug uptake
measured quantity: concentration (nM)

- compound: "CCN(CC)CCCC(C)Nc1ccnc2cc(Cl)ccc12 (stereo unspecified) [CHLOROQUINE]"
  unit abbrev: "nM"
  experimental value: 626

###

Experiment: Plasma protein binding in healthy human
Format: ADME, cell-free
Conditions: read-out: PPB

- molecule: "CCN(CC)CCCC(C)Nc1ccnc2cc(Cl)ccc12 (stereo unspecified) [CHLOROQUINE]"
  fraction unbound: 0.5

###

Assay: Volume of distribution in malaria patient
Format: ADME, organism-based
Details: human, in vivo

- molecule: "CCN(CC)CCCC(C)Nc1ccnc2cc(Cl)ccc12 (stereo unspecified) [CHLOROQUINE]"
  Vd: "> 100 L/kg"
